test: Plasma PK profiles; assay type: in vivo; settings: IV (5 mg/kg)

{"compound-structure": "N[C@H]1C=C(C(=O)O)CC1(F)F", "Cmax (ng/mL)": 4680}

----------
assay: Brain/plasma PK studies; type: in vivo; conditions: brain; PO (30 mg/kg), 0.25 h; read-out: B/P ratio

{"compound-structure": "N[C@H]1C=C(C(=O)O)CC1(F)F", "Kp at 0.25 h": 0.14}

----------
experiment: Plasma PK profiles; assay type: in vivo; conditions: IV (5 mg/kg)

{"compound-structure": "N[C@H]1C=C(C(=O)O)CC1(F)F", "AUC(0-t) (ng·h/mL)": 1150}

----------
biological target: CYP 1A2 (Homo sapiens, UniProt P05177); assay: CYP inhibition 1A2; format: in vitro ADME
Sequence (P05177 whole entry): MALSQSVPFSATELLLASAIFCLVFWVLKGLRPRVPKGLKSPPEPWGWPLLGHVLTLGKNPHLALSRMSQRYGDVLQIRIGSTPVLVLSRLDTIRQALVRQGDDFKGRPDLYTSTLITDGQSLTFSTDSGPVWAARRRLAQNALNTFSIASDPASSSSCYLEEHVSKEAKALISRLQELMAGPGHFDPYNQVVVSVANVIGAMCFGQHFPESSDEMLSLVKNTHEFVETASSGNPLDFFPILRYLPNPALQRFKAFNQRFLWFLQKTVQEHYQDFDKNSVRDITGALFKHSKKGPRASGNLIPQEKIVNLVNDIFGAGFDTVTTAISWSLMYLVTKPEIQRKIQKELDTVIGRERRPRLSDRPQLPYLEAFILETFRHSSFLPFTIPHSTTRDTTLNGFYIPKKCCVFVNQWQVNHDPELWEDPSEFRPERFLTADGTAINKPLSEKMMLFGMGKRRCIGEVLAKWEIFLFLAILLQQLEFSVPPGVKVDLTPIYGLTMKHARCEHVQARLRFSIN
measured-parameter: IC50

{"compound-structure": "N[C@H]1C=C(C(=O)O)CC1(F)F", "experimental-target": "CYP 1A2 (Homo sapiens, UniProt P05177)", "value": "> 100 µM"}

----------
assay: Plasma PK profiles; type: in vivo; details: IV (5 mg/kg), read-out: Vss
measured-parameter: Vd

{"compound": "N[C@H]1C=C(C(=O)O)CC1(F)F [SS-1-148]", "measured-parameter": "Vd", "value": "1.01 L/kg"}

----------
experiment: Plasma protein binding, mouse; type: in vitro ADME
measured-parameter: fraction unbound

{"compound-structure": "N[C@H]1C=C(C(=O)O)CC1(F)F", "measured-parameter": "fraction unbound", "value": 1}

----------
target: CYP 2C19 (Homo sapiens, UniProt P33261); assay: CYP inhibition 2C19; format: in vitro ADME
Sequence (P33261 whole entry): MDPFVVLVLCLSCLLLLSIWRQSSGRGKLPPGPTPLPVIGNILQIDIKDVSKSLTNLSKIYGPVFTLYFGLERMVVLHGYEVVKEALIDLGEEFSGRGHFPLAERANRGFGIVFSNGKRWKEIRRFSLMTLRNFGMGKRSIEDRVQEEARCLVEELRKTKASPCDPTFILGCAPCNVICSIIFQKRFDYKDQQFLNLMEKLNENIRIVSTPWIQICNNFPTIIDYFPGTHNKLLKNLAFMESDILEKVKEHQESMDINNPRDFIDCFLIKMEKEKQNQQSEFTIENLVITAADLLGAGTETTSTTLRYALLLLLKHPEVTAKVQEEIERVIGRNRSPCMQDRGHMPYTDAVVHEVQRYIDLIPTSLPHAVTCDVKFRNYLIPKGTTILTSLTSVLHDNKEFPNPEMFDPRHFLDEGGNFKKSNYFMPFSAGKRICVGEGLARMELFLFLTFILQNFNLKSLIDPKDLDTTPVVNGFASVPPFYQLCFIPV

{"compound-structure": "N[C@H]1C=C(C(=O)O)CC1(F)F", "IC50": "> 100 µM"}

----------
assay: Plasma PK profiles; format: in vivo; conditions: PO (30 mg/kg)
measured-parameter: Tmax

{"compound": "N[C@H]1C=C(C(=O)O)CC1(F)F [SS-1-148]", "measured-parameter": "Tmax", "value": "15 min"}

----------
test: Plasma PK profiles; assay type: in vivo; conditions: PO (30 mg/kg)

{"compound": "N[C@H]1C=C(C(=O)O)CC1(F)F [SS-1-148]", "Cmax / ng/mL": 8080}

----------
experiment: Plasma PK profiles; type: in vivo; conditions: PO (30 mg/kg)

{"compound-structure": "N[C@H]1C=C(C(=O)O)CC1(F)F", "bioavailability": "~100%"}

----------
molecular target: UniProtKB P08684; assay: CYP inhibition 3A4; format: in vitro ADME
Sequence (P08684 whole entry): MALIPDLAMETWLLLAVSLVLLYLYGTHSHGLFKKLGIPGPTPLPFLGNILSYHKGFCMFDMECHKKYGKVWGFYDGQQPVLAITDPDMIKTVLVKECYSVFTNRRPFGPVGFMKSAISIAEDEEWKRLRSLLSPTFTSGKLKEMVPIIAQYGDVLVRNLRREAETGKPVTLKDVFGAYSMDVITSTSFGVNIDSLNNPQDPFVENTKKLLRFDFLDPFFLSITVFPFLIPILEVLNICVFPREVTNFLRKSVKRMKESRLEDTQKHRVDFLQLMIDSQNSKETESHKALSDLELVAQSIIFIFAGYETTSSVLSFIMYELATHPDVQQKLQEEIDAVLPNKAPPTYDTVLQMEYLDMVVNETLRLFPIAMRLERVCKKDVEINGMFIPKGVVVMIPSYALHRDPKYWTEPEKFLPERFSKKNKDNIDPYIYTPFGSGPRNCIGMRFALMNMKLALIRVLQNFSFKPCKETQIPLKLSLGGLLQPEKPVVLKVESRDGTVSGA
measured-parameter: IC50

{"compound-structure": "N[C@H]1C=C(C(=O)O)CC1(F)F", "measured-parameter": "IC50", "value": "> 100 µM"}

----------
experiment: Aqueous solubility; format: physicochemical; conditions: aqueous medium (not further specified); HCl salt

{"molecule": "N[C@H]1C=C(C(=O)O)CC1(F)F [SS-1-148]", "solubility": "> 50 mM"}

----------
test: Plasma PK profiles; format: in vivo; details: IV (5 mg/kg)
measured-parameter: clearance (mL/min/kg)

{"compound-structure": "N[C@H]1C=C(C(=O)O)CC1(F)F", "measurement-unit": "mL/min/kg", "value": 72}

Origin of the recorded values: patent US20240174596A1
